# Test system: leukotriene pathway in human whole blood (LTB4 levels)
# Test: Human whole blood assay (LTB4)
# Format: cell-based
# Assay context: human whole blood diluted 1:1 in RPMI, stimulated with calcium ionophore A23187; single replicate
pIC50: −log10 of the molar value.
Kind request: treat 7 as inclusive, so pIC50 at 7 or higher is met, anything lower is not met.

compound="Nc1cnc(-c2ccc(C3CCC3)c(OCCNc3ccncn3)c2F)cn1 [Example 297]" study_system="leukotriene pathway in human whole blood (LTB4 levels)" class_assignment="not met"
compound="COCc1cc(Oc2c(C3CCC3)ccc(-c3cnc(N)cn3)c2F)nc(N)n1 [Example 142]" study_system="leukotriene pathway in human whole blood (LTB4 levels)" class_assignment=met
compound="Nc1cnc(-c2ccc(C3CCC3)c(Oc3ccnc(-c4ccccc4)n3)c2F)cn1 [Example 144]" study_system="leukotriene pathway in human whole blood (LTB4 levels)" class_assignment=met
compound="CS(=O)(=O)NCCOc1c(C2CCC2)ccc(-c2cnc(N)cn2)c1F [Example 243]" study_system="leukotriene pathway in human whole blood (LTB4 levels)" class_assignment="not met"
compound="Fc1c(-c2cnc3[nH]ccc3n2)ccc(C2CCC2)c1Oc1ncccn1 [Example 230]" study_system="leukotriene pathway in human whole blood (LTB4 levels)" class_assignment="not met"
compound="Nc1cnc(-c2ccc(C3CC3)c(Oc3ncccn3)c2F)cn1 [Example 278]" study_system="leukotriene pathway in human whole blood (LTB4 levels)" class_assignment="not met"

Ref: patent US9073876B2
